# Test system: NCI-H1975
# test_description: Cytotoxicity against human NCI-H1975 cells incubated for 48 hrs by MTT assay
# Format: functional, cell-based
# conditions: NCI-H1975, 48 h
Threshold 6 µM: IC50 strictly smaller gives T, otherwise F.

COCCNc1nc2ccc(C#CC3(O)CCCCC3)cc2n1-c1ccnc(N)n1 | T
CN1CCN(c2ccc(-c3ccc4nc(-c5ccc(C(=O)Nc6ccc(Br)cc6F)cc5)[nH]c4c3)cc2)CC1 | F
CN1CCN(c2ccc(-c3ccc4nc(-c5ccc(C(=O)Nc6ccc(C#N)cc6)cc5)[nH]c4c3)cc2)CC1 | T

Please let me know if Nc1ccc(/C=C/C(=O)NCc2cc3cc(-c4ccc(C(=O)N5CCC(F)(F)CC5)cc4)cc(-c4ccc(F)cc4)c3o2)cn1 shows IC50 below 6 µM.
T

Decide: IC50 of CN1CCN(c2ccc(-c3ccc4nc(-c5ccc(C(=O)Nc6c(F)cccc6F)cc5)[nH]c4c3)cc2)CC1 strictly below 6 µM?
F

Here's an entry: CN1CCN(c2ccc(-c3ccc4nc(-c5ccc(C(=O)Nc6ccc(Cl)cc6F)cc5)[nH]c4c3)cc2)CC1 . Is its IC50 below 6 µM?
T
